pIC50: −log10 of the molar value.
The entries that follow carry pIC50 values tested on Receptor-type tyrosine-protein kinase FLT3 (Homo sapiens, UniProt P36888), drawn from several published reports.

Param item = CN1CCN(c2ccc3nc(-c4c(N[C@@H]5CC[C@@H](O)C5)c5ccsc5[nH]c4=O)[nH]c3c2)CC1 (relative stereo) ; retrieve measured pIC50.
≥ 7.30

Subsequent entry: COC[C@H](C)Nc1ncc2c(-c3cnc(C)o3)cc([C@H]3CC[C@H](O)CC3)n2n1
5.00 to 6.00

Subsequent entry: CNc1cc(Oc2ccc(NC(=O)Nc3ccc(-c4cccc(C)n4)c(C(F)(F)F)c3)cc2)ncn1
6.47

Subsequent entry: CCc1nc2c(N)ncc(-c3cnn(C4CCC(C)(O)CC4)c3)c2nc1N[C@@H]1CC[C@H](O)C1 (single isomer, unassigned)
≥ 8.00
